METHOD_NOTES: NCI Yeast Anticancer Drug Screen. Data for the mec2-1 strain (AID 157)
STATED_CONDITIONS: S. cerevisiae mec2-1 strain, at 50.0 µM, active compounds read high
About 79,000 compounds went through this panel and 15% of them were active in at least one assay; those are over-represented in the sample as a whole.

COMPOUND	growth inhibition, %
COCCCN1CC(=O)N2Cc3ccccc3CN2C(=O)C1	-13
CC(=O)/C(C=Nc1c(C)n(C)n(C)c1=O)=C(/O)c1ccccc1	4.05
CNSC1CCC2(C)C(=CCC3C2CCC2(C)C(C(C)CCCC(C)C)CCC32)C1 (configuration not stated)	1.7
COc1ccc(C(C)(C)C#N)cc1	13.6
O=C(C[n+]1ccccc1-c1ccccn1)c1ccc(-c2ccccc2)cc1	10.7
CN(C)C(=O)Nc1cccc2c(NC(=O)N(C)C)cccc12	4.4
CC(=O)OC1COC(Cl)C(OC(C)=O)C1OC(C)=O (configuration not stated)	-2.9
O=S(=O)(OI(O)CC(F)(F)F)C(F)(F)F	48.1
CCN/C(C)=C\C(=O)OCC	8.95
CCC(CC)=C(c1ccc(C)cc1)c1ccc(C)cc1	-12.7
Nc1ncnc2c1ncn2-c1ccc(N(CCO)CCO)cc1	-12.3
Cc1cc(=O)c2cc(-c3ccccc3)ccc2[nH]1	4.4
CN(NC(=O)CCCl)C1=NCCCCN1	-17.9
Cc1ccc2sc3nc4ccccc4nc3c2c1	3.5
O=[N+]([O-])c1ccc(OS(=O)(=O)O)cc1	4.45
CN(C)Cc1cc(C(=O)/C=C/c2c(Cl)cccc2Cl)cc(CN(C)C)c1O	-17.6
S=c1[nH]nc(COc2cccc3cccnc23)n1-c1ccccc1	2.55
Clc1cccc(N2CCN(CCN3CCc4c([nH]c5ccccc45)C3c3cccnc3)CC2)c1 (configuration not stated)	-21.7
Cc1nc(N)sc1N=Nc1ccc(Br)cc1Br	68.8
O=[N+]([O-])c1cccc(/C=C/COc2ccccc2)c1	-10.4
O/N=C(\c1ccccc1)C1c2ccccc2-c2ccccc21	-17.9
CN(C)CC(C)(C)C(=O)c1ccc(F)cc1	5.8
